# ASSAY SYSTEM: T1, hPTK7-His (soluble His-tagged human PTK7 extracellular domain) (human, UniProt Q13308 31-704)
# T1 construct: also called PTK7-ECD-His; monomeric recombinant hPTK7-His (isoform a)
# T1 sequence: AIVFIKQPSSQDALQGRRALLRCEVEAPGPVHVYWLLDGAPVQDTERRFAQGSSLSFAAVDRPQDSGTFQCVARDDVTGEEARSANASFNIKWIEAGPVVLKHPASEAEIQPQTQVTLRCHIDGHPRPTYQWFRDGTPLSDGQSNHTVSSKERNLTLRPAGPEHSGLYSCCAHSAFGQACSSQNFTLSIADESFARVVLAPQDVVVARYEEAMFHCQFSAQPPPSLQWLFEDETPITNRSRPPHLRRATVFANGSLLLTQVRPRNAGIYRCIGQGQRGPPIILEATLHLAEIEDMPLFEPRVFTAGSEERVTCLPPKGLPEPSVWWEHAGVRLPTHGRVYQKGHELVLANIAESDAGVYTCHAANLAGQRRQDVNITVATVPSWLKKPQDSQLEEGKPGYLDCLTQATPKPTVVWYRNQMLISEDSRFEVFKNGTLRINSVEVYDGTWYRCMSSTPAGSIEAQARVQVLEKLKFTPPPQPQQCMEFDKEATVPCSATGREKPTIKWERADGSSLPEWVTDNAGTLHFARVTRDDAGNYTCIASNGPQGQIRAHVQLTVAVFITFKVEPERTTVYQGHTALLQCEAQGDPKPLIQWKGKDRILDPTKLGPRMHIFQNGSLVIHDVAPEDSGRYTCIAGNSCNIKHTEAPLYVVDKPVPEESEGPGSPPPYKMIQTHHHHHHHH
# PROCEDURE DETAILS: Biacore (superscript B); column Affinity (nM)
pKd: −log10 of the molar value.
MEASURED QUANTITY: pKd

Which pKd value is on record for SC6.2.35 (antibody, V domains shown, Murine monoclonal antibody from a hybridoma; also called H2.35; SC6.H2) VH: QVQMQQSGAELMKPGASVKLSCKATGYTFTGYWIEWVKQRPGHGLEWIGEILPGSGRSNSNEKFKGKATFTADTSSNTAYMQLSSLTTEDSAIYYCARGKLSWGQGTLVTVSA VL: DIVLTQSPASLAVSLGQRATISCRASESVDSFGNSFMHWYQQKPGQPPKLLIYAASNLGSGVPARFSGSGSGTDFSLNIHPVEEDDSAMYFCQQSKEVPRTFGGGSRLEIKR ?
> 10.00
